Where do these numbers come from? They come from patent EP2072521A1.

# Test system: MCF-7 breast cancer
# RUN_DESCRIPTION: Antiproliferative effects, crystal violet staining, MCF-7 cells
# Assay type: cell-based, human
# CONDITION_DETAILS: Table 1; 96 h incubation; 2 - 3 independent experiments; spread in parentheses
MEASURED_QUANTITY: pIC50
Numbers only, as −log10 of the molar value.

Noted for N.N.[Cl][Pt][Cl] [Cisplatin, reference compound] : its pIC50 reads 5.70
